# Test system: monoclonal antibody 19A7
# Type: binding, mice
# recorded_conditions: Concentration Added 500,000 ng/ml; in human urine
The following compounds are shown together with reported Concentration Observed values.
# output: bare number, implied unit ng/mL

INSERT INTO assay_data (compound, measurement_name, value_units, recorded_measurement) VALUES
  ('CCOC(=O)[C@H](CCc1ccccc1)N[C@@H](C)C(=O)N1CCC[C@H]1C(=O)O', 'Concentration Observed', 'ng/mL', 0.0);

Per the records, this compound ( c1ccc(C2(N3CCCCC3)CCCCC2)cc1 ) has Concentration Observed equal to 0.11

Lab book: Concentration Observed of CC(N)Cc1ccccc1 (centres unmarked) noted as 0.0

Entry under test: C=CCC1(C(C)CCC)C(=O)NC(=O)NC1=O (centres unmarked) . Its Concentration Observed was 0.0

Concentration Observed for CC(C)C[C@H]1C(=O)N2CCC[C@H]2[C@]2(O)O[C@](NC(=O)[C@@H]3C=C4c5cccc6[nH]cc(c56)C[C@H]4N(C)C3)(C(C)C)C(=O)N12 is 0.25

Recorded Concentration Observed (compound C[C@H](CS)C(=O)N1CCC[C@H]1C(=O)O ): 0.0

Briefly, Concentration Observed measured for CC(=O)Oc1ccccc1C(=O)O : 0.0
